# pKi values compiled below
target: D(3) dopamine receptor (Rattus norvegicus)
Sequence (P19020 whole entry): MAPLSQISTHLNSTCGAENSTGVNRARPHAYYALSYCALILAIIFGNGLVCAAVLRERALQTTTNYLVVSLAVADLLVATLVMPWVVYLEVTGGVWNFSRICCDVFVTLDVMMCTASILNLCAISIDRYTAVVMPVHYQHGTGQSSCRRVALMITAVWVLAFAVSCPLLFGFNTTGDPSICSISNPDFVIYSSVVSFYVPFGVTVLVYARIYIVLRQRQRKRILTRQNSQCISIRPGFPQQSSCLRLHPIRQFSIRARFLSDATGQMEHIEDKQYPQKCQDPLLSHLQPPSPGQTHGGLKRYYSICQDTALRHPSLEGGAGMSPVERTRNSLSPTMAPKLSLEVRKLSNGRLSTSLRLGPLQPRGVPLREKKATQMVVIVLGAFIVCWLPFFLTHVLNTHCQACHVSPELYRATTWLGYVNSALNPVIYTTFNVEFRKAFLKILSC
Schema: pKi number; meaning minus log10 of the concentration expressed in molar units.

As a guide, the following entries are already answered.
response.value for `CCCN(CCN1CCN(c2ccccc2)CC1)[C@@H]1CCc2nc(N)sc2C1` (field: pKi) = 7.36

response.value for Oc1ccc2c(c1)C[C@H]1[C@@H](CCCN1CCN1CCN(c3ccccc3)CC1)C2 (racemic) (field: pKi) = 6.33

response.value for CCCN1CCC[C@H]2c3cccc(O)c3CC[C@@H]21 (relative stereo) (field: pKi) = 7.02

Read the next record carefully.
response.value for CCCN1CCC[C@@H]2Cc3c(O)cccc3C[C@H]21 (racemic) (field: pKi) = 6.40

---

target: UniProt:P19020; test: Displacement of [3H]Spiperone from rat dopamine D3 receptor expressed in HEK293 cells; type: cell-based
ATTRIBUTE MEASURED: Ki (nM)
Write down the numeric answer in nM and omit the unit.

response.value for `CCCN(CCN1CCN(c2ccccc2)CC1)[C@H]1CCc2nc(N)sc2C1` (field: Ki) = 4.15

response.value for `Oc1cccc2c1CC[C@@H]1[C@@H]2CCCN1CCN1CCN(c2ccccc2)CC1` (field: Ki) = 89.3

response.value for `Oc1cccc2c1CC[C@H]1[C@H]2CCCN1CCN1CCN(c2ccccc2)CC1` (field: Ki) = 4.95

---
response.value for `CCCN(CCN1CCN(c2ccc(-c3ccccc3)cc2)CC1)[C@H]1CCc2nc(N)sc2C1` (field: Ki) = 0.925

response.value for Oc1cccc2c1C[C@@H]1CCCN(CCN3CCN(c4cccc(Cl)c4Cl)CC3)[C@H]1C2 (racemic) (field: Ki) = 168
